test: NFAT Signaling Pathway (AID 444); conditions: Jurkat NFAT-bla M1, carbachol, beta-lactamase ratio, 5 h; at 7.69 µM (top of the series) unless noted;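 note: carbachol stimulus at about its EC50 of 1 µM final; % is set by controls: 0 for no effect and ±100 for the full control effect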
Results filed as inconclusive are left out. Active and inactive are the calls of the source. Calls come from the whole dose curve; as a rule, active = well fitted curve in either direction with a large enough effect (not every such curve was filed as active); inconclusive = small, poorly fitted or top-dose-only effect, or another doubt; inactive = flat fitted curve, though single readings scatter.
This listing pairs compounds with measured activity change, negative = inhibition.

Note to self: activity change, negative = inhibition recorded for Cc1ccc(SCc2nnc(N)s2)cc1 was -2.66% [at 17.2 µM] (inactive)

====

target: Dual specificity protein kinase CLK4 (Homo sapiens) (UniProt Q9HAZ1); experiment: qHTS Assay for Inhibitors of CDC-like Kinase 4 (ADP-FP Assay) (AID 1795); conditions: Transcreener ADP fluorescence polarization; series mostly up to 50 µM; note: nearly all actives have a fitted effect of over 60% in size
Sequence (Q9HAZ1 whole entry, looked up): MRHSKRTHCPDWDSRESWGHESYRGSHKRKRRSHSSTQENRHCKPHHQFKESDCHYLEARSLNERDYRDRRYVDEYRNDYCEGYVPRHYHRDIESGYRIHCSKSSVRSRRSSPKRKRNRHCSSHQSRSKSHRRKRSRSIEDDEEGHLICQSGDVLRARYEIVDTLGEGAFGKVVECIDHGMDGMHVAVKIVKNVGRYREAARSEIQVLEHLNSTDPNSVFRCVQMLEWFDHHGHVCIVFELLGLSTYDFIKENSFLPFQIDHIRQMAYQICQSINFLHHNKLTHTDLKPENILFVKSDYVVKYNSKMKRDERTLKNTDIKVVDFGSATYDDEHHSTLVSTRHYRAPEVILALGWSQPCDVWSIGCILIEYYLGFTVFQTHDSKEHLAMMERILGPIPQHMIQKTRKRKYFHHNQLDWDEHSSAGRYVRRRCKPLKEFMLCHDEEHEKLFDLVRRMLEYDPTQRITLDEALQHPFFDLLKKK
Records with an inconclusive call do not appear. Calls of active or inactive are those of the source. The call rests on the fitted dose curve; in most records, active means well fitted inhibition curve with a large enough effect; inconclusive means small, poorly fitted or top-dose-only effect; inactive means flat fitted curve, though single readings scatter.
Return exactly one item of active, inactive

> print(dat)
                                smiles.data                                       tgt  assigned.label
1  COc1ccc2[nH]cc(CCNc3ncnc4ccc(-c5ccccc5OC)cc34)c2c1  Dual specificity protein kinase CLK4 (Homo sapiens) (UniProt Q9HAZ1)        inactive
2  O=c1c(-c2cccc(F)c2)nc2cncnc2n1Cc1ccc(F)cc1  Dual specificity protein kinase CLK4 (Homo sapiens) (UniProt Q9HAZ1)        inactive
3  COCCn1c(=O)c(CCc2ccccc2)nc2cnc(Oc3ccccc3)nc21  Dual specificity protein kinase CLK4 (Homo sapiens) (UniProt Q9HAZ1)        inactive
4  COCCn1c(=O)c(CCc2ccccc2)nc2cnc(OCc3ccccc3)nc21  Dual specificity protein kinase CLK4 (Homo sapiens) (UniProt Q9HAZ1)        inactive
5  COc1ccc2[nH]cc(CCNc3ncnc4ccc(-c5ccoc5)cc34)c2c1  Dual specificity protein kinase CLK4 (Homo sapiens) (UniProt Q9HAZ1)          active
6      CN1CCN(c2nc(-c3cccnc3)nc3ccccc23)CC1  Dual specificity protein kinase CLK4 (Homo sapiens) (UniProt Q9HAZ1)        inactive
7  COc1cccc(Cn2c(=O)c(CCc3ccccc3)nc3cnc(N4CCN(C)CC4)nc32)c1  Dual specificity protein kinase CLK4 (Homo sapiens) (UniProt Q9HAZ1)        inactive
8  N#Cc1cccc(-c2nc(NCCN3CCOCC3)c3ccccc3n2)c1  Dual specificity protein kinase CLK4 (Homo sapiens) (UniProt Q9HAZ1)          active

Exercise: Check the results log: what was the call for Cc1ccccc1-c1nc(Nc2ccncc2)c2ccccc2n1 ?
Key: inactive

Exercise: Check the results log: what was the call for COc1cccc(-c2cncnc2NCCN2CCOCC2)c1 ?
Key: inactive

Exercise: Check the results log: what was the call for COc1cccc(Cn2c(=O)cnc3cnc(N(C)C)nc32)c1 ?
Key: inactive

Exercise: Check the results log: what was the call for CN1CCN(c2ncc3nc(-c4cn(C)c5ccccc45)c(=O)n(C[C@H]4CCCO4)c3n2)CC1 ?
Key: inactive

Exercise: Check the results log: what was the call for c1cn(-c2ncnc3ccc(-c4ccoc4)cc23)cn1 ?
Key: active

Exercise: Check the results log: what was the call for CCNc1ncc2nc(-c3ccccc3)c(=O)n(CCC#N)c2n1 ?
Key: inactive

Exercise: Check the results log: what was the call for COc1ccccc1-c1nc(Nc2ccncc2)c2ccccc2n1 ?
Key: active

Exercise: Check the results log: what was the call for CCNc1ncc2nc(-c3cccs3)c(=O)n(CCC#N)c2n1 ?
Key: inactive

Exercise: Check the results log: what was the call for Cc1ccccc1-c1ccc2ncnc(-n3ccnc3)c2c1 ?
Key: active

Exercise: Check the results log: what was the call for CCNc1ncc2nc(-c3ccc(OC)cc3)c(=O)n(C)c2n1 ?
Key: inactive

Exercise: Check the results log: what was the call for CN(C)c1ccc(-c2cncnc2NCCc2cnc[nH]2)cc1 ?
Key: inactive

Exercise: Check the results log: what was the call for COc1ncc2nc(-c3cccs3)c(=O)n(CCC#N)c2n1 ?
Key: inactive

Exercise: Check the results log: what was the call for O=c1c(CCc2ccccc2)nc2cnc(N3CCNCC3)nc2n1Cc1cccs1 ?
Key: inactive

Exercise: Check the results log: what was the call for CCNc1ncc2nc(CCc3ccccc3)c(=O)n(CCC#N)c2n1 ?
Key: inactive

Exercise: Check the results log: what was the call for COCCn1c(=O)c(-c2ccc(F)cc2)nc2cnc(Oc3ccccc3)nc21 ?
Key: inactive

Exercise: Check the results log: what was the call for O=c1c(-c2ccccc2)nc2cnc(Oc3ccccc3)nc2n1C[C@H]1CCCO1 ?
Key: inactive

Exercise: Check the results log: what was the call for COc1ccccc1-c1nc(N2CCN(C)CC2)c2ccccc2n1 ?
Key: inactive
